Source listed as patent US9776990B2.

Quick list: pKi per entry.
- subject.of.test: BRD4 (BDII_E352-M457) (Homo sapiens (Human))
- experiment.summary: TR-FRET bromodomain binding assay, BRD4 second bromodomain
- condition.info: His-tagged BD2, 30 nM Alexa647 probe
pKi: −log10 of the molar value.

molecule: Cc1[nH]c(-c2cc(S(C)(=O)=O)ccc2OCC2CC2)c2c1C(=O)CCC2 [Example 73]
pKi: 6.34
--
molecule: Cc1[nH]c(-c2ccccc2)c2c1C(=O)CC(C)(C)C2 [Example 59]
pKi: 5.60
--
molecule: Cc1[nH]c(-c2cc(NC(=O)c3ccc[nH]3)ccc2Oc2ccc(F)cc2F)c2c1C(=O)CCC2 [Example 51]
pKi: 6.03
--
molecule: Cc1[nH]c(-c2ccccc2OCc2ccccn2)c2c1C(=O)CCC2 [Example 34]
pKi: 5.58
--
molecule: COc1ccccc1-c1[nH]c(C)c2c1CCCC2=O [Example 6]
pKi: 5.00
--
molecule: COc1ccc(-c2[nH]c(C)c3c2CCCC3=O)cc1 [Example 11]
pKi: 5.26
--
molecule: Cc1ccc(C)c(-c2[nH]c(C)c3c2CC(C)(C)CC3=O)c1 [Example 60]
pKi: 5.57
--
molecule: Cc1[nH]c(-c2cc(N)ccc2Oc2ccccc2)c2c1C(=O)CCC2 [Example 39]
pKi: 6.44
--
molecule: CCNC(=O)c1ccc(Oc2ccccc2)c(-c2[nH]c(C)c3c2CCCC3=O)c1 [Example 55]
pKi: 6.29
--
molecule: Cc1[nH]c(-c2ccccc2Oc2ccccc2)c2c1C(=O)CCC2 [Example 2]
pKi: 6.30
--
molecule: CCS(=O)(=O)Nc1ccc(Oc2ccc(F)cc2F)c(-c2[nH]c(C)c3c2CCCC3=O)c1 [Example 47]
pKi: 7.72
--
molecule: CC(=O)Nc1ccc(Oc2ccc(F)cc2F)c(-c2[nH]c(C)c3c2CCCC3=O)c1 [Example 50]
pKi: 6.26
--
molecule: Cc1[nH]c(-c2ccccc2Cl)c2c1C(=O)CCC2 [Example 15]
pKi: 4.65
--
molecule: Cc1[nH]c(-c2cc(N)ccc2Oc2ccc(F)cc2F)c2c1C(=O)CCC2 [Example 45]
pKi: 6.70
--
molecule: Cc1[nH]c(-c2cccc3cc[nH]c23)c2c1C(=O)CCC2 [Example 22]
pKi: 5.09
--
molecule: Cc1ccc(-c2[nH]c(C)c3c2CCCC3=O)cc1 [Example 4]
pKi: 4.80
--
molecule: Cc1[nH]c(-c2cc(N)ccc2Oc2ccccc2)c2c1C(=O)CC(C)C2 (stereo not shown) [Example 66]
pKi: 7.16
--
molecule: Cc1[nH]c(-c2ccccc2-c2ccco2)c2c1C(=O)CCC2 [Example 27]
pKi: 5.18
--
molecule: Cc1[nH]c(-c2cccc3[nH]ccc23)c2c1C(=O)CCC2 [Example 10]
pKi: 5.39
--
molecule: Cc1[nH]c(-c2cc(C(=O)O)ccc2Oc2ccccc2)c2c1C(=O)CCC2 [Example 54]
pKi: 6.54
--
molecule: COc1cc(-c2[nH]c(C)c3c2CCCC3=O)cc(OC)c1OC [Example 7]
pKi: 6.09
--
molecule: Cc1[nH]c(-c2ccccc2Oc2ccccc2)c2c1C(=O)CC(C)(C)C2 [Example 63]
pKi: 5.99
--
molecule: Cc1[nH]c(-c2cc(NS(=O)(=O)CC(F)(F)F)ccc2Oc2ccc(F)cc2F)c2c1C(=O)CCC2 [Example 48]
pKi: 7.37
--
molecule: Cc1[nH]c(-c2cc(NS(C)(=O)=O)ccc2Oc2ccccc2)c2c1C(=O)CC(c1ccccc1)C2 (stereo not shown) [Example 72]
pKi: 4.65
--
molecule: Cc1[nH]c(-c2ccccc2OCc2cccnc2)c2c1C(=O)CCC2 [Example 37]
pKi: 5.38
--
molecule: Cc1[nH]c(-c2ccccc2OCc2ccccc2)c2c1C(=O)CCC2 [Example 18]
pKi: 5.69
--
molecule: Cc1[nH]c(-c2cccc3[nH]cnc23)c2c1C(=O)CCC2 [Example 21]
pKi: 5.23
--
molecule: Cc1cc(C)cc(-c2[nH]c(C)c3c2CCCC3=O)c1 [Example 17]
pKi: 4.76
--
molecule: Cc1[nH]c(-c2ccccc2O)c2c1C(=O)CCC2 [Example 28]
pKi: 4.82
--
molecule: Cc1[nH]c(-c2cc(NS(C)(=O)=O)ccc2Oc2ccccc2)c2c1C(=O)CC(C(C)C)C2 (stereo not shown) [Example 71]
pKi: 6.03
--
molecule: Cc1[nH]c(-c2ccccc2OCc2cccc3ccsc23)c2c1C(=O)CCC2 [Example 36]
pKi: 5.01
